# Tested on: MS2 coat protein
# test description: apparent KD of MS2 coat protein; designed switch direction (-1 OFF switch, 1 ON switch): -1; higher = weaker reporter binding
# recorded conditions: input ligand: FMN 200 uM
assay readout: apparent KD of MS2 coat protein (nM)
Express your answer in nM, writing the number without its unit.

Please give the measured apparent KD of MS2 coat protein for this sequence: GAGUGUUGAGGAUAUACAUGAGGAUCACCCAUGUGCUUCAGCUAGGAGACUAGCAUUGGUAGAAGGCAAUACUC [Mod of lroppy 6 - Jieux - Exclusion 3] (Eterna round: R97, puzzle: Exclusion 3) 90.7

Field entry: AUUUGGUCAGGAUAUUGUUAGUUUAGUUGUUUGUAUUAGUUCGAGAAGGGACAUGAGGAUCACCCAUGUGAUUU [Ex4 #75] (Eterna round: R97, puzzle: Exclusion 4) 87.1

Field entry: GCUCGUGGGCAAGGAUAUCCUACGCUGUUCUGGUUCGUGUCUGUUACAUGAGGAUCACCCAUGUGGGAGAAGGUGCACCAGGGU [Design 50] (Eterna round: R96, puzzle: Exclusion NG 2) 22.8

Field entry: AAAAGGCAAGCAUGAUCCCACAUGAGGAUCACCCAUGUGUUCGUCUUAUAGGCUGCUGAGGCUUUUGCCUCGGUGGC [LRO Sensor-off var1-05 loose mod of D91 from Mat747] (Eterna round: R97, puzzle: Sensor, turn-off variant 1) 587

Field entry: AUAUUGUGAGGAUAUGAACUUAGUAUCGAAAGAUAGUAAGUUCAGAAGGCACAUGAGGAUCACCCAUGUUUCUC [Long static hairpin v8] (Eterna round: R97, puzzle: Exclusion 4) 399

Field entry: CAGUACUGAGGAUAUACAUGAGGAUCACCCAUGUAAUAAUCGUAGGAAACUACGAUAUGUAGAAGGCAGUACUG [Eli x3 4.04] (Eterna round: R97, puzzle: Exclusion 3) 16

Field entry: UCUGGUCGAGGAUAUACAUGAGGAUCACCCAUGUGAUUAGCAGUCCUCGGACUGCAAUGUAGAAGGCGACCAGA [E3/2-A3] (Eterna round: R97, puzzle: Exclusion 3) 894

Field entry: GGGUGCAGGCUGAGAUCCUACAUGAGGAUCACCCAUGUGGUCCGGUGACGUGAGUCACCGGACUUAGCUCGUCUUGU [salish99_S_TOV1_R5_007] (Eterna round: R97, puzzle: Sensor, turn-off variant 1) 162

Field entry: GGAUCGAAUGUGAGGAUAUGCUGGUCCUUGGAUCAGCAGAAGGCACAUGAGGAUCACCCAUGUGAAGACGGUCC [Eli bmx4 4.31] (Eterna round: R97, puzzle: Brourd's mod of Exclusion 4) 201

###

Provide the reported apparent KD of MS2 coat protein of each item.
# System: MS2 coat protein
# test description: apparent KD of MS2 coat protein; designed switch direction (-1 OFF switch, 1 ON switch): -1; higher = weaker reporter binding
# recorded conditions: input ligand: FMN 200 uM
Express your answer in nM, writing the number without its unit.

What measured apparent KD of MS2 coat protein is associated with UUAAAUCAUGUAGGAUAUGCGUGGCGAAGCUAUGCAGAAGGACAUGAGGAUCACCCAUGUGCUUGCGUCUGAGUACAGAUGCUA [Mat - Exclusion NG 1 - Mod of JL - D4] (Eterna round: R96, puzzle: Exclusion NG 1) on MS2 coat protein? 86.4

Field entry: AAAACUUUGAGAGGAUAUCUGAAAGGAAGUGUAAGAGAAGGCUCAGAGGACAUGAGGAUCACCCAUGUACGUCAUGGGCUCCGA [PowerStrip EXNG 1.15] (Eterna round: R96, puzzle: Exclusion NG 1) 49.8

Field entry: UUUAAUUGUCAGAUGGGUGACAUGAGGAUCACCCAUGUCACAAGCUUUUUGUUCGUCUUAUAAUUAACCCAUCUGAC [Stov1/11-B1] (Eterna round: R97, puzzle: Sensor, turn-off variant 1) 14

Field entry: AGCAGACGAGGAUAUGAUCAAUAAUACAUGAGGAUCACCCAUGUAAUACUGAUCCAUGGAUCAGAAGGCGUCUGCU [E5/5-A1] (Eterna round: R97, puzzle: Exclusion 5) 23.5

Field entry: CAGCUGAAAGUCAGGAUAUCUAGAGCUUCGGCUCUAGAGAAGGGACAUGAGGAUCACCCAUGUGAUUACAGCUG [BmEx4/6-A1] (Eterna round: R97, puzzle: Brourd's mod of Exclusion 4) 108

Field entry: AUAUCAAGCAAGGAUAUGCAAAUGGUUAUUUAUGCAGAAGGUGCAACAUGAGGAUCACCCAUGUUUCUGGGUUU [JR_E6_Sub049] (Eterna round: R96, puzzle: Exclusion 6) 124

Field entry: AAACCUUGAGGAUAUACAUAACAACAAAGCCUCACGUGCCAACAUGAGGAUCACCCAUGUAGAAGGCAGGCCAA [Mod R3 Insanara 11 - Jieux - Exclusion 2] (Eterna round: R97, puzzle: Exclusion 2) 15.6

Field entry: AACAACGUAGGAUAUGCAGCUACGGACUUGAGGAUCACCCAAGUGAUCAUAGCCCGUAUAGCAGAAGGGCGGAUCA [Arontebi] (Eterna round: R97, puzzle: Exclusion 5) 321

Field entry: AGGAGGAGUUCAGGAUAUUCGACAUGAGGAUCACCCAUGUGGGUAAUAUAUAGUAAAGAGAUAGAGAAGAAGGGAAGGGAGGAG [Exclusion NG2] (Eterna round: R96, puzzle: Exclusion NG 2) 42.5

Field entry: AUUCAACAUGAGGAUCACCCAUGUGAGGAUAUGCGAGAAUAGACUUCGGUCAGAUAGAGCAGAAGGCGCAGAUA [EX1 #5] (Eterna round: R97, puzzle: Exclusion 1) 22
